# TEST DETAILS: Half-life period in 95% ethanol in diffuse laboratory light at 28 degrees celsius.
# Format: ADME
MEASURE: half-life (min)

// solved cases for half-life follow
NC(=O)c1ncn2c(=O)n(-c3ccc(Cl)cc3)nnc12; 8.2
NC(=O)c1ncn2c(=O)n(CCCl)nnc12 [MITOZOLOMIDE]; 70
Cc1ccc(-n2nnc3c(C(N)=O)ncn3c2=O)cc1; 7.5
CCOc1ccc(-n2nnc3c(C(N)=O)ncn3c2=O)cc1; 8
NC(=O)c1ncn2c(=O)n(-c3ccccc3)nnc12; 9

P. COc1ccc(-n2nnc3c(C(N)=O)ncn3c2=O)cc1
Q. CCCn1nnc2c(C(N)=O)ncn2c1=O
Please choose the item with the lower half-life value from this pair: P and Q // return label of chosen record P

* * *

# TEST DETAILS: Half-life period in 95% ethanol in dark at 28 degrees celsius.
# Type: ADME
MEASURE: half-life (min)

// solved cases for half-life follow
N#Cc1cccc(-n2nnc3c(C(N)=O)ncn3c2=O)c1; 2.6
CCOc1ccc(-n2nnc3c(C(N)=O)ncn3c2=O)cc1; 78
COc1ccc(-n2nnc3c(C(N)=O)ncn3c2=O)cc1; 69

1. Cc1ccc(-n2nnc3c(C(N)=O)ncn3c2=O)cc1
2. CCCn1nnc2c(C(N)=O)ncn2c1=O
3. NC(=O)c1ncn2c(=O)n(-c3cccc4ccccc34)nnc12
4. Cn1nnc2c(C(N)=O)ncn2c1=O [TEMOZOLOMIDE]
5. NC(=O)c1ncn2c(=O)n(-c3ccccc3)nnc12
Kindly order the items shown according to half-life, from the highest value down. Write out the labels following the order that was asked for. 4, 2, 1, 5, 3
(4: 495 min, 2: 155 min, 1: 40 min, 5: 23 min, 3: 4.6 min)

* * *

# TEST DETAILS: Half-life period in 95% ethanol in dark at 28 degrees celsius.
# Format: ADME
Entries annotated with measured half-life
State just the number; it will be interpreted in min.

NC(=O)c1ncn2c(=O)n(CCCl)nnc12 [MITOZOLOMIDE]; 72

Now let's try a different one.
What value of measured half-life is listed for NC(=O)c1ncn2c(=O)n(-c3ccc(Cl)cc3)nnc12 ? 6.3
